- Test system: human Factor 11 mRNA
- PROTOCOL DETAILS: Dose-dependent inhibition of human Factor 11 in HepG2 cells, electroporation 0.7-20 uM (Example 4)
- Type: cell-based
- APPLIED CONDITIONS: 6.7 μM, relative to untreated control cells
Strand notation (5' to 3'): a small letter for the sugar, then the base; units joined by * are phosphorothioate-linked, units joined directly phosphodiester-linked; [ ] holds rarer units or linkages, { } end groups; capitals alone tell only the bases. e = 2'-O-(2-methoxyethyl) (MOE); [5mC] = 5-methylcytosine; d = 2'-deoxy (DNA)
MEASURED ATTRIBUTE: percent inhibition of Factor 11 at 6.7 μM (%)

# SUBSTANCE, SYSTEM NAME, DISPLAY UNIT, OBS VALUE
measured = [
    ("416931 (antisense eG*eG*e[5mC]*dA*dT*dT*dG*dG*dT*dG*d[5mC]*dA*d[5mC]*dA*dG*dT*dT*eT*e[5mC]*eT) [compound 416931]", "human Factor 11 mRNA", "%", 60),
    ("416972 (antisense eT*eA*dT*dG*d[5mC]*d[5mC]*d[5mC]*dT*dT*d[5mC]*dA*dT*dG*dT*d[5mC]*eT*eA*eG*eG*eT) [compound 416972]", "human Factor 11 mRNA", "%", 48),
    ("416973 (antisense eT*eT*dA*dT*dG*d[5mC]*d[5mC]*d[5mC]*dT*dT*d[5mC]*dA*dT*dG*dT*e[5mC]*eT*eA*eG*eG) [compound 416973]", "human Factor 11 mRNA", "%", 86),
    ("416858 (antisense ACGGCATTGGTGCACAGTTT; 5-10-5 gapmer, further chemistry not given here) [compound 416858]", "human Factor 11 mRNA", "%", 56),
    ("416895 (antisense eT*eA*eT*dG*d[5mC]*d[5mC]*d[5mC]*dT*dT*d[5mC]*dA*dT*dG*dT*d[5mC]*dT*dA*eG*eG*eT) [compound 416895]", "human Factor 11 mRNA", "%", 70),
    ("416984 (antisense e[5mC]*eA*dA*d[5mC]*d[5mC]*dG*dG*dG*dA*dT*dG*dA*dT*dG*dA*eG*eT*eG*e[5mC]*eA) [compound 416984]", "human Factor 11 mRNA", "%", 88),
]
